Kd overview
Molecular target: T1, human CXCR4-enriched lipoparticles (LEV101, Integral Molecular) (human, UniProt P61073 1-352)
T1 construct: Bought reagent; CXCR4 held in lipoparticles captured by biotinylated WGA on an SA chip; also called Lipoparticles containing CXCR4 proteins
T1 sequence (P61073 whole entry): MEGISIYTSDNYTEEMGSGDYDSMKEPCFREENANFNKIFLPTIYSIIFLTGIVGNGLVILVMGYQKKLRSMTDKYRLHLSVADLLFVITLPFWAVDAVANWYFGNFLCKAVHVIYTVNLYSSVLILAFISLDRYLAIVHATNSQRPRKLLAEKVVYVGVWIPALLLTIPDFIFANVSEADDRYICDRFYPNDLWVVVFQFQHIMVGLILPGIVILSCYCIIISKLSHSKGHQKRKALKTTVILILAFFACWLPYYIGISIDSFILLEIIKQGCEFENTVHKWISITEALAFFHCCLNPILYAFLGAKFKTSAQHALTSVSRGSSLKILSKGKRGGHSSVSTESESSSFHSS
Experiment: biosensor kinetic titration, Fab over captured human CXCR4 lipoparticles

binder	unit-annotation	Kd
h3G10 VH / h3G10 VL Fab (Fab, V domains shown, Tested as Fab; also called h3G10 Fab) VH: EVQLVESGGGLVQPGGSLRLSCAASGFTFSDYYMSWVRQAPGKGLEWVGFIRHKANGYTTEYSTSVKGRFTISRDDSKNSLYLQMNSLKTEDTAVYYCARDLPGFAYWGQGTLVTVSS VL: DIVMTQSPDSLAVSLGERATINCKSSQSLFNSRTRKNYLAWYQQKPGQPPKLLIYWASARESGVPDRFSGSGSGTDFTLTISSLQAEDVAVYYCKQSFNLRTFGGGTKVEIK	nM	1.9
h3G10.2.37 VH / h3G10.2.72 VL Fab (Fab, V domains shown, Tested as Fab) VH: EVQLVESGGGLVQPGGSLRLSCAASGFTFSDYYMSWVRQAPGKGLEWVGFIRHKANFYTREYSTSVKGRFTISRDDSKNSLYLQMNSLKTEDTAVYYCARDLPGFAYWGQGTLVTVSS VL: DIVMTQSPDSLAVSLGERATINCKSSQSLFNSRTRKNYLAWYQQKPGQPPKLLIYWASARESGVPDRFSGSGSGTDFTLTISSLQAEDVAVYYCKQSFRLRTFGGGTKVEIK	nM	0.35
h3G10.A57 VH / h3G10.2.72 VL Fab (Fab, V domains shown, Tested as Fab) VH: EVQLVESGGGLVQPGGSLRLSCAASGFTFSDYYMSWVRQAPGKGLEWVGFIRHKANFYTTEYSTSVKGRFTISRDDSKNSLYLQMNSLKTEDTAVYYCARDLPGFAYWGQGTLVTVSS VL: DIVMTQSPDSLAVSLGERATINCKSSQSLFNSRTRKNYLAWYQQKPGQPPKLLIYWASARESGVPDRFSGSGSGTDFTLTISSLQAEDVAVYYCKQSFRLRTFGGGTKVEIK	nM	1.12
